molecular target: human P2X3 receptor (Homo sapiens (Human), UniProt P56373); assay: Evaluation of human P2X3 receptor inhibitory activity (Fluo-3 calcium fluorescence, FDSS 3000, ATP stimulation); type: cell-based; settings: C6BU-1 cells stably expressing human P2X3 receptor
Sequence (P56373 whole entry): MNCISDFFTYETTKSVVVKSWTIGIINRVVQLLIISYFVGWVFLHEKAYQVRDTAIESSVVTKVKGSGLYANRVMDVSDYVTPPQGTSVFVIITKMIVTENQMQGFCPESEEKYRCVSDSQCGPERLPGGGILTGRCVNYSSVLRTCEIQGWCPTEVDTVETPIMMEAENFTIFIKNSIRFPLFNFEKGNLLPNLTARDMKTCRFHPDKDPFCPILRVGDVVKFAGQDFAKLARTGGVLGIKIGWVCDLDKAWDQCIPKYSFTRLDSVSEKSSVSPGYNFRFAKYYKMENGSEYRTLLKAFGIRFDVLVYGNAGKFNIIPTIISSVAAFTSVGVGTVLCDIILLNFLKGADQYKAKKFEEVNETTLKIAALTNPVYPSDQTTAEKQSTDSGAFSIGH
Response field label: string, one of Criterion met (IC50 strictly below 20 nM) or Criterion not met.

compound="Cc1cc(/N=c2\\[nH]c(=O)n(Cc3cccnc3OCCOC3CCCCO3)c(=O)n2Cc2ccc(Cl)cc2)ccc1OC(C)C (stereo not shown)" target_system="human P2X3 receptor (Homo sapiens (Human), UniProt P56373)" class_label="Criterion not met"
compound=CC(C)Oc1ccc(/N=c2\[nH]c(=O)n(Cc3nnn[nH]3)c(=O)n2Cc2ccc(Cl)cc2)cc1F target_system="human P2X3 receptor (Homo sapiens (Human), UniProt P56373)" class_label="Criterion not met"
compound=CC(C)Oc1ccc(/N=c2\[nH]c(=O)n(CCC(=O)NC#N)c(=O)n2Cc2ccc(Cl)cc2)cc1F target_system="human P2X3 receptor (Homo sapiens (Human), UniProt P56373)" class_label="Criterion met"
compound=CCn1c(=O)[nH]/c(=N\c2ccc(Oc3cncc(C(=O)O)c3)cc2)n(CC2CCC(C)(C)CC2)c1=O target_system="human P2X3 receptor (Homo sapiens (Human), UniProt P56373)" class_label="Criterion not met"
compound=CC(C)NC(=O)c1ccc(/N=c2\[nH]c(=O)n(C[C@H](C)C(=O)O)c(=O)n2Cc2ccc(Cl)cc2)cc1Cl target_system="human P2X3 receptor (Homo sapiens (Human), UniProt P56373)" class_label="Criterion not met"
compound=CC(C)Oc1ccc(/N=c2\[nH]c(=O)n(CCC(=O)NN)c(=O)n2Cc2ccc(Cl)cc2)cc1F target_system="human P2X3 receptor (Homo sapiens (Human), UniProt P56373)" class_label="Criterion not met"
compound=C[C@@H](Cn1c(=O)[nH]/c(=N\c2ccc(OC3CCC3)cc2)n(Cc2ccc(Cl)cc2)c1=O)C(=O)O target_system="human P2X3 receptor (Homo sapiens (Human), UniProt P56373)" class_label="Criterion met"
compound=NC(=O)CCn1c(=O)[nH]/c(=N\c2ccc(OC3CCC3)cc2)n(Cc2ccc(Cl)cc2)c1=O target_system="human P2X3 receptor (Homo sapiens (Human), UniProt P56373)" class_label="Criterion not met"
compound=CCCc1ccc(/N=c2\[nH]c(=O)n(C[C@H](C)C(=O)O)c(=O)n2Cc2ccc(C)cc2)cc1C target_system="human P2X3 receptor (Homo sapiens (Human), UniProt P56373)" class_label="Criterion not met"
compound=CC(C)Oc1ccc(/N=c2\[nH]c(=O)n(C[C@H](C)C(=O)O)c(=O)n2Cc2ccc(F)cc2)cc1F target_system="human P2X3 receptor (Homo sapiens (Human), UniProt P56373)" class_label="Criterion not met"
compound=CC[C@@H](C)Oc1ccc(/N=c2\[nH]c(=O)n(C[C@H](C)C(=O)O)c(=O)n2Cc2ccc(Cl)cc2)cc1 target_system="human P2X3 receptor (Homo sapiens (Human), UniProt P56373)" class_label="Criterion met"
compound=Cc1cc(/N=c2\[nH]c(=O)n([C@H]3CCOC3=O)c(=O)n2Cc2ccc(Cl)cc2)ccc1OC(C)C target_system="human P2X3 receptor (Homo sapiens (Human), UniProt P56373)" class_label="Criterion not met"
compound=CCn1c(=O)[nH]/c(=N\c2ccc(Oc3cccc(C(N)=O)c3)cc2)n(Cc2ccc(Cl)cc2)c1=O target_system="human P2X3 receptor (Homo sapiens (Human), UniProt P56373)" class_label="Criterion met"
compound=CCn1c(=O)[nH]/c(=N\c2ccc(Oc3ccnc(N)c3)cc2)n(Cc2ccc(Cl)cc2)c1=O target_system="human P2X3 receptor (Homo sapiens (Human), UniProt P56373)" class_label="Criterion met"
compound=Cc1cc(/N=c2\[nH]c(=O)n(C[C@H](C)CC(=O)O)c(=O)n2Cc2ccc(Cl)cc2)ccc1OC(C)C target_system="human P2X3 receptor (Homo sapiens (Human), UniProt P56373)" class_label="Criterion not met"
compound=Cn1c(=O)[nH]/c(=N\c2ccc(Oc3ccnc(CO)c3)cc2)n(Cc2ccc(Cl)cc2)c1=O target_system="human P2X3 receptor (Homo sapiens (Human), UniProt P56373)" class_label="Criterion not met"
compound=COC(=O)[C@@H](C)Cn1c(=O)[nH]/c(=N\c2ccc(COC(C)C)cc2)n(Cc2ccc(Cl)cc2)c1=O target_system="human P2X3 receptor (Homo sapiens (Human), UniProt P56373)" class_label="Criterion not met"
compound=CCCCOc1ccc(/N=c2\[nH]c(=O)n(C[C@H](C)C(=O)O)c(=O)n2Cc2ccc(Cl)cc2)cc1 target_system="human P2X3 receptor (Homo sapiens (Human), UniProt P56373)" class_label="Criterion not met"
compound=CCOC(=O)CCn1c(=O)[nH]/c(=N\c2ccc(CC(C)C)c(OC)c2)n(Cc2ccc(Cl)cc2)c1=O target_system="human P2X3 receptor (Homo sapiens (Human), UniProt P56373)" class_label="Criterion not met"
compound=CCn1c(=O)[nH]/c(=N\c2ccc(Oc3cc(C(=O)OC)ncn3)cc2)n(Cc2ccc(Cl)cc2)c1=O target_system="human P2X3 receptor (Homo sapiens (Human), UniProt P56373)" class_label="Criterion met"
compound=COc1cc(/N=c2\[nH]c(=O)n(C[C@H](C)C(=O)O)c(=O)n2Cc2ccc(C)cc2)ccc1CC(C)C target_system="human P2X3 receptor (Homo sapiens (Human), UniProt P56373)" class_label="Criterion met"
compound=COC(=O)[C@@H](C)Cn1c(=O)[nH]/c(=N\c2ccc(OC(C)C)c(C)c2)n(Cc2ccc(F)cc2)c1=O target_system="human P2X3 receptor (Homo sapiens (Human), UniProt P56373)" class_label="Criterion not met"
compound=Cc1oc2ccc(/N=c3\[nH]c(=O)n(CCCO)c(=O)n3Cc3ccc(Cl)cc3)cc2c1C target_system="human P2X3 receptor (Homo sapiens (Human), UniProt P56373)" class_label="Criterion met"
compound=COC(=O)CCCn1c(=O)[nH]/c(=N\c2ccc3nc(C)sc3c2)n(Cc2ccc(Cl)cc2)c1=O target_system="human P2X3 receptor (Homo sapiens (Human), UniProt P56373)" class_label="Criterion met"
compound=CCCCc1ccc(/N=c2\[nH]c(=O)n(C[C@H](C)C(=O)O)c(=O)n2Cc2ccc(Cl)cc2)cc1 target_system="human P2X3 receptor (Homo sapiens (Human), UniProt P56373)" class_label="Criterion not met"
compound=Cc1ccc(Cn2c(=O)n(CCC(=O)O)c(=O)[nH]/c2=N\c2ccc3[nH]c(=O)sc3c2)cc1 target_system="human P2X3 receptor (Homo sapiens (Human), UniProt P56373)" class_label="Criterion not met"
compound=Cc1ccc(Cn2c(=O)n(CCCO)c(=O)[nH]/c2=N\c2ccc(O[C@H](C)C(F)(F)F)cc2)cc1 target_system="human P2X3 receptor (Homo sapiens (Human), UniProt P56373)" class_label="Criterion met"

* * *

Here, each record is paired with measured IC50 data.
molecular target: human P2X3 receptor (Homo sapiens (Human), UniProt P56373); test: Evaluation of human P2X3 receptor inhibitory activity (Fluo-3 calcium fluorescence, FDSS 3000, ATP stimulation); type: cell-based; settings: C6BU-1 cells stably expressing human P2X3 receptor;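 also: stimulus was 50 nM ATP with fluorescence followed for 3 min, and the response per well was peak post-ATP fluorescence divided by the reading at measurement start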
parameter: IC50

smiles_input=COC(=O)[C@H](C)[C@H](C)n1c(=O)[nH]/c(=N\c2ccc3oc(C)cc3c2)n(Cc2ccc(Cl)cc2)c1=O target_system="human P2X3 receptor (Homo sapiens (Human), UniProt P56373)" parameter=IC50 reported_result="33 nM"
smiles_input=CC(C)Oc1ccc(/N=c2\[nH]c(=O)n(C(C)(C)C(=O)NCCO)c(=O)n2Cc2ccc(Cl)cc2)cc1Cl target_system="human P2X3 receptor (Homo sapiens (Human), UniProt P56373)" parameter=IC50 reported_result="11 nM"
smiles_input=CCOC(=O)/C(Cn1c(=O)[nH]/c(=N\c2ccc(OC(C)C)c(F)c2)n(Cc2ccc(Cl)cc2)c1=O)=N/OC target_system="human P2X3 receptor (Homo sapiens (Human), UniProt P56373)" parameter=IC50 reported_result="7 nM"
smiles_input=CCn1c(=O)[nH]/c(=N\c2ccc(Oc3cc(CO)on3)cc2)n(Cc2ccc(Cl)cc2)c1=O target_system="human P2X3 receptor (Homo sapiens (Human), UniProt P56373)" parameter=IC50 reported_result="15 nM"
smiles_input=Cc1ccc(Cn2c(=O)n(C[C@H](C)C(=O)O)c(=O)[nH]/c2=N\c2ccc(OC3CCCCC3)cc2)cc1 target_system="human P2X3 receptor (Homo sapiens (Human), UniProt P56373)" parameter=IC50 reported_result="17 nM"
smiles_input=O=c1[nH]/c(=N\c2ccc(Oc3cncc(CO)c3)cc2)n(Cc2ccc(Cl)cc2)c(=O)n1CCO target_system="human P2X3 receptor (Homo sapiens (Human), UniProt P56373)" parameter=IC50 reported_result="38 nM"
smiles_input=COC(=O)[C@H](C)[C@H](C)n1c(=O)[nH]/c(=N\c2ccc(N3CCCCC3)cc2)n(Cc2ccc(Cl)cc2)c1=O target_system="human P2X3 receptor (Homo sapiens (Human), UniProt P56373)" parameter=IC50 reported_result="26 nM"
